Origin of values: patent US20260167714A1

- Tested On: T1, recombinant human ILT4 (LILRB2) (human, UniProt Q8N423 22-460)
- T1 construct: Bought protein (Acro Biosystems or R&D Systems); also called ILTR4
- T1 sequence (Q8N423 other isoform, or with tags, fused parts or gaps limits assumed): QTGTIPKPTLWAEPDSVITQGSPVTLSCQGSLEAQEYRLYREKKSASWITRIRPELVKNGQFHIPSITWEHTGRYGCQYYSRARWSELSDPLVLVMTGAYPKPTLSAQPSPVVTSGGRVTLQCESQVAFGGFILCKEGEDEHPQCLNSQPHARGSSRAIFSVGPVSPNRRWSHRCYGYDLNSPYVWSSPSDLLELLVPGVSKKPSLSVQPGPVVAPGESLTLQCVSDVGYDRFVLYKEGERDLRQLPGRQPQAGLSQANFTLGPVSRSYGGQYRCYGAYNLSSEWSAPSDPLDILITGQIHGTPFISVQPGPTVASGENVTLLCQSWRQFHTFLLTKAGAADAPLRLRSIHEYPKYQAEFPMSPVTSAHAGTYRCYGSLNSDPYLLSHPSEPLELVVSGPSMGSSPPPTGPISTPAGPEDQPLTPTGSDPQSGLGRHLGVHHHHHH
- Assay Method Text: SPR, high resolution kinetics, triplicate, LALA antibody; 95% CI in parentheses
Observation Type: kon
Record the result as number plus unit.

Required: kon, one value per binder below.
1. Hz180-LALA (antibody, human IgG1, kappa, L234A L235A, V domains shown, Humanized L180S4, human IgG1 L234A/L235A, kappa; also called Humanized 180_04; Hz 180 04) VH: QVQLVQSGAEVKKPGSSVKVSCKASGYSFIGYFMNWMRQAPGQGLEWIGRINPYNGDIFYNQKFKGRVTITVDKSTSTAYMELSSLRSEDTAVYYCARGITVAAGSFDVWGQGTTVTVSS VL: DIVMTQSPDSLAVSLGERATINCRASESVDNYGNTFMHWYQQKPGQPPKLLIYRASNLESGIPDRFSGSGSGTDFTLTISSLQAEDVAVYYCQQSSDHPLTFGGGTKVEIKR
2. Hz156.03-LALA (antibody, human IgG1, kappa, L234A L235A, V domains shown, Humanized L156S3, human IgG1 L234A/L235A, kappa) VH: QVQLVQSGAEVKKPGSSVKVSCKASGYTFTDYYMNWVRQAPGQGLEWIARIYPGVYRTHYNEKFKDRVTLTADKSTSTAYMELSSLRSEDTAVYYCARSGYYGGTYEEDAMDYWGQGTTVTVSS VL: DIQMTQSPSSLSASVGDRVTITCRASENIYSNLAWYQQKPGKAPKLLVYAATSLADGVPSRFSGSGSGTDYTLTISSLQPEDFATYYCQNFWDTPYTFGQGTKVEIKR
3. Hz45.01-LALA (antibody, human IgG1, kappa, L234A L235A, V domains shown, Humanized L45S4, human IgG1 L234A/L235A, kappa; also called Humanized 45_01; Hu IgG 45_01 LALA) VH: QVQLVQSGAEVKKPGASVKVSCKASGYTFTDYYMNWVRQAPGQRLEWIGDINPNNGGTSYNQKFKGRATITVDTSASTAYMELSSLRSEDTAVYYCARGGAELTGTYWYFDVWGQGTTVTVSS VL: DIQMTQSPSSLSASVGDRVTITCRASENIYSNLAWYQQKPGKAPKVLVYGATNLADGVPSRFSGSGSGTEYTLTISSLQPEDFATYYCQHFWDSPFTFGGGTKVEIKR
4. Hz77-LALA (antibody, human IgG1, kappa, L234A L235A, V domains shown, Humanized L77S2, human IgG1 L234A/L235A, kappa; also called Humanized 77_01; Hz 77 01) VH: QVQLVQSGAEVKKPGSSVKVSCKASGYSFTGYSVNWVRQAPGQGLEWIGRINPYNGDIFNNQKFKGRATITVDKSTSTAYMELSSLRSEDTAVYYCARGTTVGGAWFAYWGQGTLVTVSS VL: DIVMTQSPDSLAVSLGERATINCRASESVDSYGYSFLHWYQQKPGQPPKLLIYLASNLESGIPDRFSGSGSGTDFTLTISSLQAEDVAVYYCQQSNEDLMYTFGGGTKVEIKR

Response:
3.95e+06 M⁻¹ s⁻¹
3.22e+06 M⁻¹ s⁻¹
3.45e+06 M⁻¹ s⁻¹
4.78e+06 M⁻¹ s⁻¹
